The molecules listed here are annotated with their viability increase.
assay: viability gain of MRP-1-high H69AR cells under doxorubicin, pilot screen, MRP-1 activator project, CellTiter-Glo, duplicate (AID 807); details: H69AR viability with doxorubicin, CellTiter-Glo luminescence; at 10 µM; hits give high values;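 further: compound pretreatment 18-22 h then 72 h combined with doxorubicin; 0% = doxorubicin alone and 100% = vehicle without doxorubicin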

| molecule | units-of-measure | viability increase |
| --- | --- | --- |
| O=C(NCC1(c2ccccc2)CCOCC1)c1ccc(Br)o1 | % | 2.31 |
| COc1ccc(N2C(=O)C3CCCN3C2c2ccccc2)cc1 (stereo unspecified) | % | -0.65 |
| COc1ccc(OC)c(N(CC(=O)NC2CC2)S(=O)(=O)c2ccc(C)cc2)c1 | % | -0.94 |
| COc1ccc(NC2c3ccccc3C(=O)N2c2cccnc2)cc1Cl (stereo unspecified) | % | -2.35 |
| CN(C)S(=O)(=O)c1ccc(C(=O)Nc2nc(-c3cccs3)cs2)cc1 | % | -1.56 |
| C=CC(C)Sc1nc2c(c(=O)n(C)c(=O)n2C)n1Cc1ccccc1Cl (stereo unspecified) | % | -3.37 |
| O=C(NCCN1CCOCC1)c1ccc2c(c1)ncn2C1CCCC1 | % | -0.55 |
| N#CC1=C2SCN(Cc3ccccc3)CN2C(=O)CC1c1cccs1 (stereo unspecified) | % | -2.91 |
| CCCc1cc(=O)[nH]c(SCC(=O)N2CCN(S(=O)(=O)c3ccc(C)cc3)C2)n1 | % | -1.75 |
| O=C(NCc1ccc2c(c1)OCO2)c1cc2c(s1)CSC2 | % | -1.75 |
| O=C1c2oc3ccccc3c(=O)c2C(c2cccc(O)c2)N1CCCN1CCOCC1 (stereo unspecified) | % | -0.83 |
